# experimentalSystem: DNA gyrase subunit A/DNA gyrase subunit B (Mycobacterium tuberculosis (strain ATCC 25618 / H37Rv), UniProt P9WG45+P9WG47)
# Sequence (P9WG45 whole entry): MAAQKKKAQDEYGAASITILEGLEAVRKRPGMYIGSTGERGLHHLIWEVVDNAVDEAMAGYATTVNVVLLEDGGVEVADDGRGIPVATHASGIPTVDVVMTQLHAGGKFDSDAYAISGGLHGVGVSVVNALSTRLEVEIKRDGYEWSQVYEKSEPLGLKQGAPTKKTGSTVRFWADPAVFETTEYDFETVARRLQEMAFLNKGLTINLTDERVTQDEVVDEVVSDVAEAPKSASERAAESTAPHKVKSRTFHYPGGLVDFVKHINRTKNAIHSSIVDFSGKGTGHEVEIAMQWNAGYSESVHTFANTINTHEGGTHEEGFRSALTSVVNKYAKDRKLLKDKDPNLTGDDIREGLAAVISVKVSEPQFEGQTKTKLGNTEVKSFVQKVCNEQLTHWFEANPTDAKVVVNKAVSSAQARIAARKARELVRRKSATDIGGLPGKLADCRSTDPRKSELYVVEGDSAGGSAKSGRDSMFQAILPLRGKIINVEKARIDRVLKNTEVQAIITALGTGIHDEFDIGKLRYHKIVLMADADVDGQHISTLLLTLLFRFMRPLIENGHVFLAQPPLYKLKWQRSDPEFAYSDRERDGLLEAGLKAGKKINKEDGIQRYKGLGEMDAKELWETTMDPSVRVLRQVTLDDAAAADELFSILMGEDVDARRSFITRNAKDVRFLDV
# Sequence (P9WG47 whole entry): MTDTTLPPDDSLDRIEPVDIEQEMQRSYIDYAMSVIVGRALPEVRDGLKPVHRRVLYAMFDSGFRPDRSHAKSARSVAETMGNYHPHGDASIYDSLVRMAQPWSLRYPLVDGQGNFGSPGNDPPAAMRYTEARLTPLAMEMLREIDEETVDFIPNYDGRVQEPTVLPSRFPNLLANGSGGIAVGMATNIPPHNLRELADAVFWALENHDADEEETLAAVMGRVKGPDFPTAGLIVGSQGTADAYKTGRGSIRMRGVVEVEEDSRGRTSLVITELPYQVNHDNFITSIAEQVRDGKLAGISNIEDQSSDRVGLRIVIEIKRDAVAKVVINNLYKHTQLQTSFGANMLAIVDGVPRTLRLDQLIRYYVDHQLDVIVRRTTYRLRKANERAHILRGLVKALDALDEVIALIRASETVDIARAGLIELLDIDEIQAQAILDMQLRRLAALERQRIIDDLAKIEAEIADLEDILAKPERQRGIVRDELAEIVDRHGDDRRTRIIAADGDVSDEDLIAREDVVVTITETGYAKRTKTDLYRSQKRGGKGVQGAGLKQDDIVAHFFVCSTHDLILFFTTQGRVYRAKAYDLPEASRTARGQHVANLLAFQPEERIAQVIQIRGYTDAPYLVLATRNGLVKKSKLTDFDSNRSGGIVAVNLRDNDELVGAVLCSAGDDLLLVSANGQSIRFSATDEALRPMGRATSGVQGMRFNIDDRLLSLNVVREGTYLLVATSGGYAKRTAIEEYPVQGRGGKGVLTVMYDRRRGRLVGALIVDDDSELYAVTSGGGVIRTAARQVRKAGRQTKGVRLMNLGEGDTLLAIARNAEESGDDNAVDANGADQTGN
# testProtocol: Inhibition of Mycobacterium tuberculosis DNA gyrase assessed as inhibition of DNA supercoiling activity using relaxed pBR322 as substrate incubated for 30 mins by ethidium bromide staining based agarose gel electrophoresis
endpointLabel: log10 IC50 (log10 of the value in µM)
Record value = log10 of IC50 given in µM.

Consider the reported log10 IC50 for these compounds:
>>> valueobserved("O=c1nc(N2CCN(C(=S)Nc3ccc([N+](=O)[O-])cc3)CC2)sc2ccc([N+](=O)[O-])cc12")
0.41
>>> valueobserved("O=C(Nc1ccc(Cl)cc1)N1CCN(c2nc(=O)c3cc([N+](=O)[O-])ccc3s2)CC1")
1.37
>>> valueobserved("COc1ccc2c(c1)C(=O)C(=O)N2CCN1CCN(NCc2ccc(Cl)cc2Cl)CC1")
0.61
>>> valueobserved("O=C1C(=O)N(CCN2CCN(NCc3ccc(Cl)cc3Cl)CC2)c2ccccc21")
1.61
>>> valueobserved("Cc1ccc(CN2CCN(c3nc(=O)c4cc([N+](=O)[O-])ccc4s3)CC2)cc1")
0.95

// lookup log10 IC50 for COc1ccccc1CNN1CCN(CCN2C(=O)C(=O)c3cc(C)ccc32)CC1
0.70

Now the compound O=C1C(=O)N(CCN2CCN(NCc3ccccc3F)CC2)c2ccc(F)cc21
0.62

Proceed to O=C1C(=O)N(CCN2CCN(NCc3ccccc3OCc3ccccc3)CC2)c2ccc(Cl)cc21
0.58

Next: O=c1nc(N2CCN(C(=S)Nc3ccc(Cl)cc3)CC2)sc2ccc([N+](=O)[O-])cc12
-0.29

Could you do the same for O=C(Nc1ccccc1)N1CCN(c2nc(=O)c3cc([N+](=O)[O-])ccc3s2)CC1 , please?
1.23

Same for O=C1C(=O)N(CCN2CCN(NCc3ccccc3C(F)(F)F)CC2)c2ccccc21
1.40

Next compound up: O=C(Nc1ccc([N+](=O)[O-])cc1)N1CCN(c2nc(=O)c3cc([N+](=O)[O-])ccc3s2)CC1
0.96

Next compound: O=C1C(=O)N(CCN2CCN(NCc3ccc([N+](=O)[O-])o3)CC2)c2ccccc21
0.66

Next: COc1ccc2c(c1)C(=O)C(=O)N2CCN1CCN(NCc2ccccc2C(F)(F)F)CC1
1.59

// query: Cc1ccc(NC(=S)N2CCN(c3nc(=O)c4cc(C(F)(F)F)ccc4s3)CC2)cc1
0.65

Try O=C1C(=O)N(CCN2CCN(NCc3cccc(Cl)c3Cl)CC2)c2ccccc21 next.
0.68

Proceed to O=c1nc(N2CCN(C(=S)Nc3ccccc3)CC2)sc2ccc(Cl)cc12
1.04

Next compound up: COc1ccccc1CNN1CCN(CCN2C(=O)C(=O)c3cc(Cl)ccc32)CC1
1.70

* * *

# experimentalSystem: DNA gyrase subunit A/DNA gyrase subunit B (Mycobacterium tuberculosis (strain ATCC 25618 / H37Rv), UniProt P9WG45+P9WG47)
# testProtocol: Inhibition of Mycobacterium tuberculosis DNA gyrase assessed as inhibition of DNA supercoiling activity using relaxed pBR322 as substrate incubated for 30 mins by ethidium bromide staining based agarose gel electrophoresis
endpointLabel: pIC50
The read-out pIC50 is expressed as -log10 of concentration in moles per litre.

>>> valueobserved("O=C(Nc1ccccc1)N1CCN(c2nc(=O)c3cc(C(F)(F)F)ccc3s2)CC1")
4.96

Please give the measured pIC50 for this compound: O=c1nc(N2CCN(C(=S)Nc3ccccc3)CC2)sc2ccc([N+](=O)[O-])cc12
6.11

Next compound: O=C1C(=O)N(CCN2CCN(NCc3ccc(Cl)cc3Cl)CC2)c2ccc(Cl)cc21
4.30

Next compound: O=c1nc(N2CCN(Cc3ccc(Cl)cc3)CC2)sc2ccc(Cl)cc12
4.92

Consider next the compound O=C1C(=O)N(CCN2CCN(NCc3ccccc3OCc3ccccc3)CC2)c2ccc(F)cc21 in the same way.
4.37

Follow-up item: O=c1nc(N2CCN(C(=S)Nc3ccc([N+](=O)[O-])cc3)CC2)sc2ccc(C(F)(F)F)cc12
5.67

Now consider O=C1C(=O)N(CCN2CCN(NCc3ccccc3OCc3ccccc3)CC2)c2ccccc21 .
5.00

What do we get for O=c1nc(N2CCN(Cc3ccccc3)CC2)sc2ccc(C(F)(F)F)cc12 ?
4.94

* * *

# Test system: Mycobacterium tuberculosis
# testProtocol: Inhibition of Mycobacterium tuberculosis topoisomerase-1 using DNA as substrate preincubated for 15 mins followed by substrate addition measured after 30 mins by ethidium-bromide based agarose gel electrophoresis
endpointLabel: INH (µM)
Write down the numeric answer in µM and omit the unit.

Consider the following illustrative entries.
>>> valueobserved("Clc1cccc(-c2cnc3cc(-c4ccc5cn[nH]c5c4)cnc3n2)c1")
7.5
>>> valueobserved("Cn1ccc2cc(-c3cnc4nc(-c5ccccc5)cnc4c3)ccc21")
0.1
>>> valueobserved("Cc1ccc(-c2cnc3cc(-c4ccc5[nH]ccc5c4)cnc3n2)cc1")
0.1

May I ask what INH has been recorded for Brc1c2ccccc2c(Br)c2nc(-c3ccco3)c(-c3ccco3)nc12 ?
0.1

Another compound to look at: c1ccc(N2CCC(Cc3nc4cc5ccccc5cc4nc3CN3CCN(c4ccccn4)CC3)CC2)nc1
7.5

* * *

# experimentalSystem: DNA gyrase subunit B (Mycobacterium smegmatis, UniProt P0C559)
# Sequence (P0C559 whole entry): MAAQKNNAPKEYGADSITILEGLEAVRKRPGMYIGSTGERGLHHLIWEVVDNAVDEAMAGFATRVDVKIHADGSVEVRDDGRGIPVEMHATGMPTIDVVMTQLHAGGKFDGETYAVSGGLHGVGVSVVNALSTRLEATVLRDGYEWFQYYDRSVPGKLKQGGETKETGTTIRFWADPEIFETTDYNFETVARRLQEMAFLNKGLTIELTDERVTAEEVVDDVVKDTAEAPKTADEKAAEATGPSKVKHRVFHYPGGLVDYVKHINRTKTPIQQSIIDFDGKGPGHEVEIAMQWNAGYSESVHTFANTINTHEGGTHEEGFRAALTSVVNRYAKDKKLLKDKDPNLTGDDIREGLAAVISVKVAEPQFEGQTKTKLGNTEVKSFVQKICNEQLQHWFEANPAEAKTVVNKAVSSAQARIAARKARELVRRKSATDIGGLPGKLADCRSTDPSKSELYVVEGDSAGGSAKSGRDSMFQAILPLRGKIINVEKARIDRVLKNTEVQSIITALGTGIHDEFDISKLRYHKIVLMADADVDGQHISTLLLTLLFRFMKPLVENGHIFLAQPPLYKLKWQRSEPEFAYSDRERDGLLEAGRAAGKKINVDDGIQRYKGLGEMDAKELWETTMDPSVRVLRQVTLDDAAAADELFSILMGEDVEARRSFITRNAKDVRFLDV
# testProtocol: Inhibition of Mycobacterium smegmatis DNA gyrase B expressed in BL21(DE3)pLysS cells assessed as inhibition of […] activity in presence of ATP measured after 30 mins by malachite green dye based assay
endpointLabel: pIC50
In plain terms, pIC50 is the concentration in mol/L turned into minus its base-10 logarithm.

>>> valueobserved("O=C1C(=O)N(CCN2CCN(NCc3ccccc3C(F)(F)F)CC2)c2ccc(F)cc21")
4.97
>>> valueobserved("O=C1C(=O)N(CCN2CCN(NCc3ccccc3C(F)(F)F)CC2)c2ccc(Cl)cc21")
4.66
>>> valueobserved("O=C1C(=O)N(CCN2CCN(NCc3cccc(Cl)c3Cl)CC2)c2ccc(Cl)cc21")
4.36
>>> valueobserved("O=C1C(=O)N(CCN2CCN(NCc3ccccc3OCc3ccccc3)CC2)c2ccc(F)cc21")
4.15
>>> valueobserved("O=C1C(=O)N(CCN2CCN(NCc3ccc(Cl)cc3Cl)CC2)c2ccc(Cl)cc21")
4.17

Form entry - test system: DNA gyrase subunit B (Mycobacterium smegmatis, UniProt P0C559); read-out: pIC50; compound: COc1ccccc1CNN1CCN(CCN2C(=O)C(=O)c3cc(Cl)ccc32)CC1
4.12

And for O=C1C(=O)N(CCN2CCN(NCc3ccc(Cl)cc3Cl)CC2)c2ccccc21 ?
4.08

COc1ccc2c(c1)C(=O)C(=O)N2CCN1CCN(NCc2ccccc2OC)CC1 , same question.
4.09

Try O=C1C(=O)N(CCN2CCN(NCc3ccccc3OCc3ccccc3)CC2)c2ccc(Cl)cc21 next.
4.86

* * *

# testProtocol: Cytotoxicity against mouse RAW264.7 cells assessed as inhibition of cell viability at 100 uM measured after 48 hrs by MTT assay relative to control
# Assay type: toxicity
# conditionNotes: read-out: INH
endpointLabel: cytotoxicity at 48 h, 100 µM (%)
Please reply with the bare figure in % and do not write the unit itself.

Worked examples, 4 molecules total:
>>> valueobserved("Cc1ccc(NC(=O)N2CCN(c3nc(=O)c4cc(Cl)ccc4s3)CC2)cc1")
5.14
>>> valueobserved("O=c1nc(N2CCN(Cc3ccccc3)CC2)sc2ccc([N+](=O)[O-])cc12")
5.41
>>> valueobserved("O=c1nc(N2CCN(C(=S)Nc3ccc([N+](=O)[O-])cc3)CC2)sc2ccc([N+](=O)[O-])cc12")
2.21
>>> valueobserved("Cc1ccc(NC(=S)N2CCN(c3nc(=O)c4cc([N+](=O)[O-])ccc4s3)CC2)cc1")
4.22

Fill in the blank: the reported cytotoxicity at 48 h, 100 µM of O=C(Nc1ccc([N+](=O)[O-])cc1)N1CCN(c2nc(=O)c3cc([N+](=O)[O-])ccc3s2)CC1 is ____.
15.2

Moving on to the next molecule: Cc1ccc(NC(=S)N2CCN(c3nc(=O)c4cc(Cl)ccc4s3)CC2)cc1
2.48

Then O=c1nc(N2CCN(Cc3ccc(Cl)cc3)CC2)sc2ccc(C(F)(F)F)cc12 ?
8.45

And Cc1ccc(NC(=O)N2CCN(c3nc(=O)c4cc([N+](=O)[O-])ccc4s3)CC2)cc1 ?
16.2

Now consider O=c1nc(N2CCN(Cc3ccc([N+](=O)[O-])cc3)CC2)sc2ccc([N+](=O)[O-])cc12 .
21.4

* * *

# testProtocol: Cytotoxicity against mouse RAW264.7 cells assessed as inhibition of cell viability at 100 uM measured after 48 hrs by MTT assay relative to control
# Type: toxicity
# conditionNotes: read-out: INH
endpointLabel: cytotoxicity at 48 h, 100 µM (%)
Give your result in % as a bare value.

>>> valueobserved("O=C(Nc1ccc([N+](=O)[O-])cc1)N1CCN(c2nc(=O)c3cc(Cl)ccc3s2)CC1")
3.56

Dear colleague, I am looking for the recorded cytotoxicity at 48 h, 100 µM of the following molecule: Cc1ccc(NC(=S)N2CCN(c3nc(=O)c4cc(C(F)(F)F)ccc4s3)CC2)cc1
16.4

Here is the next molecule: Cc1ccc(NC(=O)N2CCN(c3nc(=O)c4cc(C(F)(F)F)ccc4s3)CC2)cc1
7.56

Input CO[C@@H]1[C@@H](OC(N)=O)[C@@H](O)[C@H](Oc2ccc3c(O)c(NC(=O)c4ccc(O)c(CC=C(C)C)c4)c(=O)oc3c2C)OC1(C)C
7.56
